target entity: active p38 alpha enzyme (Upstate Biotechnology) (Homo sapiens)
Construct: purchased Upstate Biotechnology
Sequence (Q16539 whole entry): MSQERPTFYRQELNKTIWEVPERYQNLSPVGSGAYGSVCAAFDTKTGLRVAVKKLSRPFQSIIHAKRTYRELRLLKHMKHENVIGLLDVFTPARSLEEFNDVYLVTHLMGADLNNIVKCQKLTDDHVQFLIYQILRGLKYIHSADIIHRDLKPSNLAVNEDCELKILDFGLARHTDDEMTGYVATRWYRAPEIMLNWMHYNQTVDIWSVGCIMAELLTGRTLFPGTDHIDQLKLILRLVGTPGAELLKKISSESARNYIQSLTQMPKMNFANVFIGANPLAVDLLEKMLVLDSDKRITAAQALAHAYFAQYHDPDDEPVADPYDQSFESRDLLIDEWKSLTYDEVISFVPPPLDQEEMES
experimental protocol: p38α biochemical assay (ATP turnover, luminescent detection, Cambrex PKlight)
condition description: p38α kinase; Table 1 Biological Activity
pIC50: −log10 of the molar value.
measure: pIC50

Example cases with answers are listed next.
[[record]]
molecule = "CCC(CO)NC(=O)c1csc(-c2sc(C)nc2-c2ccc(F)cc2)n1 (stereo not shown) [Example 1728]"
measure = "pIC50"
reading = "≥ 6.00"

[[record]]
molecule = "COc1cc2c(cc1OC)CN(Cc1onc(-c3ccc(F)cc3)c1-c1nc(C(=O)NC(C)C)cs1)CC2"
measure = "pIC50"
reading = "< 6.00"

[[record]]
molecule = "Cc1cccc(C(=O)N2CCC(c3[nH]nc(-c4ccc(F)cc4)c3-c3nc(C(=O)NC(C)C)cs3)CC2)c1"
measure = "pIC50"
reading = "< 6.00"


Now take the following molecule into account.
Look up and report measured pIC50 for this entry: "Cc1nc(-c2ccc(F)cc2)c(-c2nc(C(=O)N3CCN(c4cccc(Cl)c4)CC3)cs2)s1"
< 6.00

Origin of measurements: patent US20060252807A1
